Test system: A431 (ATCC: CRL-1555)
Test: Test of cancer cell growth inhibition (SRB), A431
Details: Homo sapiens, A-431, 72 h, read-out: IC50 A431
pIC50: −log10 of the molar value.
# if value of pIC50 reaches 7, tag y; if it stays below, tag n

Recorded results for 8 molecules are shown here.
Molecule | Class assignment
C=CC(=O)N[C@H](C)C(=O)Nc1cc2c(Nc3ccc(OCc4ccccn4)c(Cl)c3)ncnc2cc1OC [Example 189] | y
C=CC(=O)N1CCC(C(=O)Nc2cc3c(Nc4ccc(OCc5ccccn5)c(Cl)c4)ncnc3cc2OC)CC1 [Example 197] | n
C=CC(=O)N1CCC[C@H]1C(=O)Nc1cc2c(Nc3ccc(OCc4ccccn4)c(Cl)c3)ncnc2cc1OC1CCCC1 [Example 173] | n
C=CC(=O)NCCC(=O)Nc1ccc2ncnc(Nc3ccc(OCc4cccc(F)c4)c(Cl)c3)c2c1 [Example 22] | y
O=C(CCCNC(=O)C1CC1)Nc1ccc2ncnc(Nc3ccc(OCc4cccc(F)c4)c(Cl)c3)c2c1 [Example 92] | n
CCOC(=O)C(=O)NCCCC(=O)Nc1ccc2ncnc(Nc3ccc(OCc4cccc(F)c4)c(Cl)c3)c2c1 [Example 91] | n
C=CC(=O)N1CCC[C@H]1C(=O)Nc1cc2c(Nc3ccc(OCCF)c(Cl)c3)ncnc2cc1OC [Example 203] | n
C=CC(=O)NCCC(=O)Nc1ccc2ncnc(Nc3ccc(OCc4ccncc4)c(Cl)c3)c2c1 [Example 174] | n

Kindly determine if pIC50 recorded for C=CC(=O)NCC(F)C(=O)Nc1cc2c(Nc3ccc(OCc4ccccn4)c(Cl)c3)ncnc2cc1OC (stereo not drawn) [Example 206] is above or exactly 7.
y

Kindly determine if pIC50 recorded for C=CC(=O)N1CCC[C@H]1C(=O)Nc1cc2c(Nc3ccc(OCc4ccccn4)c(C)c3)ncnc2cc1OCC [Example 186] is above or exactly 7.
y

Kindly determine if pIC50 recorded for O=C(CCNC(=O)OCc1ccccc1)Nc1ccc2ncnc(Nc3ccc(OCc4cccc(F)c4)c(Cl)c3)c2c1 [Example 128] is above or exactly 7.
n

Kindly determine if pIC50 recorded for CN(C)CC(=O)NCCCC(=O)Nc1ccc2ncnc(Nc3ccc(OCc4cccc(F)c4)c(Cl)c3)c2c1 [Example 104] is above or exactly 7.
n
